STUDY SYSTEM: T1, Human C5 (human, UniProt P01031 19-1676)
T1 construct: The natural protein has a beta and an alpha chain; also called complement factor 5; complement component 5
PROTOCOL: SPR, mAb captured by anti-hFc, 25C
Response key: yes means koff >= 0.0001 s⁻¹; no means koff < 0.0001 s⁻¹.

# BINDER, GROUP LABEL
records = [
    ("H4H12167P (antibody, human IgG4, V domains shown) VH: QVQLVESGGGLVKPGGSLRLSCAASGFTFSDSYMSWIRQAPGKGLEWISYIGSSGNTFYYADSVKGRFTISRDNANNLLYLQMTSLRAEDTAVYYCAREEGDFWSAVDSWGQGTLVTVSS VL: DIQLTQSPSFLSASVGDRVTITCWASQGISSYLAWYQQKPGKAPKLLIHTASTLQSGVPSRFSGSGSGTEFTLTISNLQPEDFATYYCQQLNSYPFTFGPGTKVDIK", "yes"),
    ("H4H12163P (antibody, human IgG4, V domains shown) VH: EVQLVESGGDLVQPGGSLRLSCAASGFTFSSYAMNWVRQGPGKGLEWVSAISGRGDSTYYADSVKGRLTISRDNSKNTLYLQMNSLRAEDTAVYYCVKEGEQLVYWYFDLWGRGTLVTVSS VL: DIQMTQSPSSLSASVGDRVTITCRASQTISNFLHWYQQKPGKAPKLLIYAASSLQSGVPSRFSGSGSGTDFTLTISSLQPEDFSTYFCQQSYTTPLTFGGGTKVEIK", "yes"),
    ("H4H12166P10 (antibody, human IgG4, V domains shown, human IgG4 Fc with S108P hinge mutation) VH: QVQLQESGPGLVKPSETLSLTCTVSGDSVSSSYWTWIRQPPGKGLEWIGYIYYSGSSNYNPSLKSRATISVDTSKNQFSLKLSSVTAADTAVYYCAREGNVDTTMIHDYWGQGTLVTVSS VL: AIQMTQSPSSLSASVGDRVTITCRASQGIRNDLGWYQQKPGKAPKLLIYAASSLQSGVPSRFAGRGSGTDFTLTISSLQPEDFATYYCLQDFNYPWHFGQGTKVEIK", "yes"),
    ("H4H12169P (antibody, human IgG4, V domains shown) VH: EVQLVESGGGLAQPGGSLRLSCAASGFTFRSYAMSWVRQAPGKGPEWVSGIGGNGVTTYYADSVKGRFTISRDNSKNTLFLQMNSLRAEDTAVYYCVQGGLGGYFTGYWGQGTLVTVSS VL: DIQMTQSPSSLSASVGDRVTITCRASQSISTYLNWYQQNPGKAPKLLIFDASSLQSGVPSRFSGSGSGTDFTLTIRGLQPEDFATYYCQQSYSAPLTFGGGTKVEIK", "yes"),
    ("H4H11683N (antibody, human IgG4, V domains shown, also called H2M11683N) VH: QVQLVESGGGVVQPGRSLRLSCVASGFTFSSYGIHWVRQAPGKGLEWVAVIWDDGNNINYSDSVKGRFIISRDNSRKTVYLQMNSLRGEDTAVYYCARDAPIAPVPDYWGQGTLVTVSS VL: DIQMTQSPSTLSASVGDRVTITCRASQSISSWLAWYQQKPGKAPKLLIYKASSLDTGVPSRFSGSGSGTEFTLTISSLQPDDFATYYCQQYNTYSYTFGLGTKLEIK", "no"),
    ("H4H12171P (antibody, human IgG4, V domains shown) VH: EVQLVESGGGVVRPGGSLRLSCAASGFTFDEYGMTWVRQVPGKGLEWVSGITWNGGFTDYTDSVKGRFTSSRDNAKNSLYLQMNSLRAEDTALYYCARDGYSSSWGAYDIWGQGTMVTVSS VL: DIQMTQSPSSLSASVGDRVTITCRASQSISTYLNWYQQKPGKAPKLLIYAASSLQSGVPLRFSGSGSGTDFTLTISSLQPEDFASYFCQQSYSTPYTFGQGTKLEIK", "no"),
]
